These data points were gathered from the Immune Epitope Database (IEDB).

Molecular target: HLA-A*02:01
Experiment: IEDB peptide-MHC binding, purified MHC/direct/fluorescence; filed as Kd, often an IC50 or EC50 that approximates it; bounds were set here for any values at or beyond the usual limits of such assays
Settings: source organism: Vibrio vulnificus
pKd: −log10 of the molar value.
METRIC: pKd

{"columns": ["POLYMER_SEQUENCE", "METRIC", "LIMIT_SIGN", "TEST_VALUE"],
 "data": [
  ["STDTRHIPQ", "pKd", "≤", 4.70],
  ["IMDEPTSSL", "pKd", "=", 7.57]
]}

###

Molecular target: HLA-B*08:02
Experiment: IEDB peptide-MHC binding, purified MHC/direct/fluorescence; filed as Kd, often an IC50 or EC50 that approximates it; bounds were set here for any values at or beyond the usual limits of such assays
Conditions: source organism: Yersinia enterocolitica subsp. enterocolitica 8081
pKd: −log10 of the molar value.
METRIC: pKd

{"columns": ["POLYMER_SEQUENCE", "METRIC", "TEST_VALUE"],
 "data": [
  ["QWSPGPGRL", "pKd", "≤ 4.70"]
]}

###

Target: HLA-B*15:01
Test: IEDB peptide-MHC binding, purified MHC/direct/fluorescence; filed as Kd, often an IC50 or EC50 that approximates it; bounds were set here for any values at or beyond the usual limits of such assays
Conditions: source organism: Influenza A virus (A/Quail/Shanghai/8/96(H9N2))
pKd: −log10 of the molar value.
METRIC: pKd

{"columns": ["POLYMER_SEQUENCE", "TEST_VALUE"],
 "data": [
  ["LVGGREWSY", 5.92]
]}

###

Target: HLA-B*15:01
Assay: IEDB peptide-MHC binding, purified MHC/direct/fluorescence; filed as Kd, often an IC50 or EC50 that approximates it; bounds were set here for any values at or beyond the usual limits of such assays
Conditions: source organism: Rickettsia prowazekii
METRIC: Kd (nM)

{"columns": ["POLYMER_SEQUENCE", "METRIC", "TEST_VALUE"],
 "data": [
  ["YGGKKAVTY", "Kd", 1400]
]}

###

Molecular target: HLA-B*58:01
Assay: IEDB peptide-MHC binding, purified MHC/direct/fluorescence; filed as Kd, often an IC50 or EC50 that approximates it; bounds were set here for any values at or beyond the usual limits of such assays
Conditions: source organism: Influenza A virus (A/swine/Hong Kong/5190/99(H3N2))
METRIC: Kd

{"columns": ["POLYMER_SEQUENCE", "METRIC", "TEST_VALUE"],
 "data": [
  ["YMFESKSMK", "Kd", "≥ 20 µM"]
]}

###

Target: HLA-A*24:02
Experiment: IEDB peptide-MHC binding, purified MHC/competitive/radioactivity; filed as Kd, often an IC50 or EC50 that approximates it; bounds were set here for any values at or beyond the usual limits of such assays
Conditions: source organism: Mammarenavirus lassaense
pKd: −log10 of the molar value.

{"columns": ["POLYMER_SEQUENCE", "MEASURED_TARGET", "pKd"],
 "data": [
  ["PEDPVEVALY", "HLA-A*24:02", "≤ 4.15"],
  ["VGRAWENTI", "HLA-A*24:02", 5.06],
  ["YEEFCNAVY", "HLA-A*24:02", "≤ 4.11"]
]}

###

Biological target: HLA-B*57:01
Experiment: IEDB peptide-MHC binding, purified MHC/competitive/radioactivity; filed as Kd, often an IC50 or EC50 that approximates it; bounds were set here for any values at or beyond the usual limits of such assays
Settings: source organism: Dengue virus 2 Jamaica/1409/1983

{"columns": ["POLYMER_SEQUENCE", "Kd"],
 "data": [
  ["KTRANDWDF", "0.0221 µM"],
  ["TTEDMLAVW", "0.0301 µM"]
]}

###

Molecular target: HLA-A*02:01
Assay: IEDB peptide-MHC binding, cellular MHC/competitive/fluorescence; bounds were set here for any values at or beyond the usual limits of such assays
Settings: source organism: Mycobacterium tuberculosis
METRIC: IC50 (nM)

{"columns": ["POLYMER_SEQUENCE", "UNIT_SPEC", "TEST_VALUE"],
 "data": [
  ["ALGGGATGV", "nM", 1400]
]}

###

Biological target: HLA-B*08:01
Test: IEDB peptide-MHC binding, purified MHC/direct/fluorescence; filed as Kd, often an IC50 or EC50 that approximates it; bounds were set here for any values at or beyond the usual limits of such assays
Conditions: source organism: Influenza A virus (A/chicken/Vietnam/393/2005(H5N1))

{"columns": ["POLYMER_SEQUENCE", "Kd"],
 "data": [
  ["VLTGNLQTL", "≥ 20 µM"]
]}

###

Each record here notes measured pKd.
Biological target: HLA-A*33:01
Assay: IEDB peptide-MHC binding, purified MHC/competitive/radioactivity; filed as Kd, often an IC50 or EC50 that approximates it; bounds were set here for any values at or beyond the usual limits of such assays
Conditions: source organism: Vaccinia virus WR
pKd: −log10 of the molar value.
METRIC: pKd

{"columns": ["POLYMER_SEQUENCE", "MEASURED_TARGET", "METRIC", "LIMIT_SIGN", "TEST_VALUE"],
 "data": [
  ["GSTAEQLSK", "HLA-A*33:01", "pKd", "≤", 4.11],
  ["IMVASDVCK", "HLA-A*33:01", "pKd", "=", 5.46],
  ["PISELSRLRY", "HLA-A*33:01", "pKd", "=", 4.81],
  ["YFTFGDTALY", "HLA-A*33:01", "pKd", "≤", 4.34],
  ["RIQRRDDVDR", "HLA-A*33:01", "pKd", "=", 4.75],
  ["HINALEYIIK", "HLA-A*33:01", "pKd", "=", 6.70],
  ["KSSSIDVDKR", "HLA-A*33:01", "pKd", "=", 5.09],
  ["TFNSLNTDDY", "HLA-A*33:01", "pKd", "≤", 4.15],
  ["MIIKHIYEQY", "HLA-A*33:01", "pKd", "≤", 4.15],
  ["IFREIASSMK", "HLA-A*33:01", "pKd", "=", 6.33],
  ["LTIKDSSNK", "HLA-A*33:01", "pKd", "≤", 4.11]
]}

###

Target: HLA-B*51:01
Experiment: IEDB peptide-MHC binding, purified MHC/direct/fluorescence; filed as Kd, often an IC50 or EC50 that approximates it; bounds were set here for any values at or beyond the usual limits of such assays
Details: source organism: Alkhumra hemorrhagic fever virus
pKd: −log10 of the molar value.
METRIC: pKd

{"columns": ["POLYMER_SEQUENCE", "TEST_VALUE"],
 "data": [
  ["AVSRGTAKL", "≤ 4.70"]
]}

###

Target: HLA-A*02:01
Test: IEDB peptide-MHC binding, purified MHC/direct/fluorescence; filed as Kd, often an IC50 or EC50 that approximates it; bounds were set here for any values at or beyond the usual limits of such assays
Conditions: source organism: Influenza A virus (A/Hong Kong/507/97(H5N1))
pKd: −log10 of the molar value.

{"columns": ["POLYMER_SEQUENCE", "MEASURED_TARGET", "pKd"],
 "data": [
  ["GTSKIKMKW", "HLA-A*02:01", "≤ 4.70"]
]}

###

Molecular target: HLA-B*15:09
Assay: IEDB peptide-MHC binding, purified MHC/direct/fluorescence; filed as Kd, often an IC50 or EC50 that approximates it; bounds were set here for any values at or beyond the usual limits of such assays
Conditions: source organism: Orthomarburgvirus marburgense

{"columns": ["POLYMER_SEQUENCE", "Kd"],
 "data": [
  ["KRLLLKLDF", "≥ 20 µM"]
]}

###

Target: HLA-B*44:03
Test: IEDB peptide-MHC binding, purified MHC/competitive/radioactivity; filed as Kd, often an IC50 or EC50 that approximates it; bounds were set here for any values at or beyond the usual limits of such assays
Details: source organism: Mammarenavirus machupoense
pKd: −log10 of the molar value.
METRIC: pKd

{"columns": ["POLYMER_SEQUENCE", "MEASURED_TARGET", "LIMIT_SIGN", "TEST_VALUE"],
 "data": [
  ["RELLKSLSGL", "HLA-B*44:03", "≤", 4.63],
  ["TEQFLCYAL", "HLA-B*44:03", "=", 5.82],
  ["EEPVPLLPLS", "HLA-B*44:03", "=", 5.20]
]}

###

Molecular target: HLA-B*39:01
Test: IEDB peptide-MHC binding, purified MHC/competitive/fluorescence; filed as Kd, often an IC50 or EC50 that approximates it; bounds were set here for any values at or beyond the usual limits of such assays
Details: source organism: Cryptosporidium parvum Iowa II
pKd: −log10 of the molar value.
Each record here notes measured pKd.
METRIC: pKd

{"columns": ["POLYMER_SEQUENCE", "METRIC", "TEST_VALUE"],
 "data": [
  ["KIFKVTGEF", "pKd", "≤ 4.70"],
  ["KLGDITLFL", "pKd", "≤ 4.70"]
]}
